System: adult S. japonicum male worms
Assay: In vitro screening of S. japonicum adults at 100 nM (WormAssay motility, descriptors, severity score)
Type: cell-based, Schistosoma japonicum
Details: S. japonicum, 72 h, max = 4, one line per replicate
// reported SEVERITY SCORES 72 h for each item listed
// print number alone

Prompt: Give adult S. japonicum male worms SEVERITY SCORES 72 h for O=[N+]([O-])c1ccc2nc(Nc3cc(C(F)(F)F)ccc3F)c(Nc3cc(C(F)(F)F)ccc3F)nc2c1
Completion: 4

Prompt: Give adult S. japonicum male worms SEVERITY SCORES 72 h for COc1ccc(Nc2nc3ccc([N+](=O)[O-])cc3nc2Nc2ccc(OC)c(C(F)(F)F)c2)cc1C(F)(F)F
Completion: 0

Prompt: Give adult S. japonicum male worms SEVERITY SCORES 72 h for O=[N+]([O-])c1ccc2nc(Nc3ccc(Cl)c(Cl)c3)c(Nc3ccc(Cl)c(Cl)c3)nc2c1
Completion: 2

Prompt: Give adult S. japonicum male worms SEVERITY SCORES 72 h for O=[N+]([O-])c1ccc2nc(Nc3cccc(Cl)c3)c(Nc3cccc(Cl)c3)nc2c1
Completion: 2

***
Prompt: Give adult S. japonicum male worms SEVERITY SCORES 72 h for O=[N+]([O-])c1ccc2nc(Nc3ccc(C(F)(F)F)cc3)c(Nc3ccc(C(F)(F)F)cc3)nc2c1
Completion: 4

====

System: S. mansoni schistosomula
Experiment: S. mansoni schistosomula high-throughput phenotype and motility screen (Roboworm), 72 h
Assay type: cell-based, Schistosoma mansoni
Details: Schistosoma mansoni, Table 4, Series A; read-out: Anti-schistosomal activity EC50 Schistosomula (μM) Phenotype
// reported EC50 for each item listed
Use µM as the unit, but write only the number.

Worked cases, answers included:
Prompt: Param item = O=[N+]([O-])c1ccc2nc(Nc3cc(F)cc(C(F)(F)F)c3)c(Nc3cc(F)cc(C(F)(F)F)c3)nc2c1 ; retrieve measured EC50.
Completion: 0.37

Prompt: Param item = O=[N+]([O-])c1ccc2nc(Nc3cccc(C(F)(F)F)c3)c(Nc3cccc(C(F)(F)F)c3)nc2c1 ; retrieve measured EC50.
Completion: 0.34

Prompt: Param item = O=[N+]([O-])c1ccc2nc(Nc3cccc(Cl)c3)c(Nc3cccc(Cl)c3)nc2c1 ; retrieve measured EC50.
Completion: 1.22

***
Prompt: Param item = COc1ccc(Nc2nc3ccc([N+](=O)[O-])cc3nc2Nc2ccc(OC)c(C(F)(F)F)c2)cc1C(F)(F)F ; retrieve measured EC50.
Completion: 0.63

Prompt: Param item = O=[N+]([O-])c1ccc2nc(Nc3ccc(F)cc3)c(Nc3ccc(F)cc3)nc2c1 ; retrieve measured EC50.
Completion: 2.14

====

// reported EC50 for each item listed
System: S. mansoni schistosomula
Assay: S. mansoni schistosomula high-throughput phenotype and motility screen (Roboworm), 72 h
Type: cell-based, Schistosoma mansoni
Conditions: Schistosoma mansoni, 72 h, Table S7; phenotype; 95% CI in brackets; read-out: Activity on schistosomula (EC50, µM - 72 h) (95% CI) P
Procedure: Cercariae derived from the NMRI ([…]) Puerto Rican strain (PR-1) of S. mansoni were shed from two Biomphalaria glabrata strains, the NMRI albino and pigmented outbred strains, under intensified lighting conditions (1 h of incubation at 26 °C). Cercariae were then mechanically transformed into schistosomula as previously described. High-throughput screening (HTS) of selected compounds was conducted as previously described. […]

Worked cases, answers included:
Prompt: Param item = O=C(Nc1ccc2nc(Nc3ccc(Cl)c(Cl)c3)c(Nc3ccc(Cl)c(Cl)c3)nc2c1)c1cccc(C(F)(F)F)c1 [Compound 22g] ; retrieve measured EC50.
Completion: > 50 µM

Prompt: Param item = O=[N+]([O-])c1ccc2nc(O)c(O)nc2c1 [6-nitro-2,3-dihydroxy-quinoxaline] ; retrieve measured EC50.
Completion: > 50 µM

***
Prompt: Param item = O=C(Nc1ccc2nc(Nc3ccc(Cl)c(Cl)c3)c(Nc3ccc(Cl)c(Cl)c3)nc2c1)C1CCCCC1 [Compound 22e] ; retrieve measured EC50.
Completion: > 50 µM

Prompt: Param item = Cc1cccc(Nc2nc3ccc([N+](=O)[O-])cc3nc2Nc2cccc(C)c2C)c1C [Compound 27] ; retrieve measured EC50.
Completion: > 10 µM

Prompt: Param item = O=[N+]([O-])c1ccc2nc(Nc3cc(C(F)(F)F)ccc3F)c(Nc3cc(C(F)(F)F)ccc3F)nc2c1 [Compound 33] ; retrieve measured EC50.
Completion: 0.15 µM

Prompt: Param item = Clc1ccc(Nc2nc3ccc(N4CCCC4)cc3nc2Nc2ccc(Cl)c(Cl)c2)cc1Cl [Compound 22b] ; retrieve measured EC50.
Completion: > 10 µM

Prompt: Param item = O=[N+]([O-])c1ccc2nc(Cl)c(Cl)nc2c1 [2,3-dichloro-6-nitroquinoxaline] ; retrieve measured EC50.
Completion: > 10 µM
